# assay system: JAK1 (aa 850-1154, catalytic domain, GST-tag) (Homo sapiens)
# Construct: JAK1 (aa 850-1154) and TYK2 (aa 871-1187) are expressed with an N-terminally fused GST-tag; GST (N); purchased Carna Biosciences, Inc; host or cells: baculovirus expression system
# Sequence (P23458 850-1154): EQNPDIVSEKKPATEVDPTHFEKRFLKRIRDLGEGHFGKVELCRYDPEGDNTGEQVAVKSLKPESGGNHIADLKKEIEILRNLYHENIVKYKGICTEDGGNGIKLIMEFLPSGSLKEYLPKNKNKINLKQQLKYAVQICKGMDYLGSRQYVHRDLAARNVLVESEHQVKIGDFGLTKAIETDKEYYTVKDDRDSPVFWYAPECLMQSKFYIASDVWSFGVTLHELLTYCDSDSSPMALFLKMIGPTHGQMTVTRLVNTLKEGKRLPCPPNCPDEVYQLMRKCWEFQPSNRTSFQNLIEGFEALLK
# assay name: JAK kinase assay (HTRF, phosphorylation of TK substrate-biotin), JAK1
# Format: biochemical
# condition summary: ATP at Km (7 μM); read-out: JAK1 kinase inhibitory activity (EC50 indicator)
# key: entry, value: EC50
observed property: EC50

compound=O=C(c1c[nH]c2ccccc12)N1CCN(c2ncnc3[nH]ccc23)CC12CC2 observed_property=EC50 observed_measurement="< 100 nM"
compound="CC1CN(C(=O)CCC#N)C2(CC2)CN1c1ncnc2[nH]ccc12 (centres unmarked)" observed_property=EC50 observed_measurement="< 100 nM"
compound=O=C(C(=O)N1CCN(c2ncnc3[nH]ccc23)CC12CC2)c1cccs1 observed_property=EC50 observed_measurement="< 100 nM"
compound=O=C(c1cccc2cccnc12)N1CCN(c2ncnc3[nH]ccc23)CC12CC2 observed_property=EC50 observed_measurement="100 to 500 nM"
compound=O=C(c1ccc2[nH]cnc2c1)N1CCN(c2ncnc3[nH]ccc23)CC12CC2 observed_property=EC50 observed_measurement="< 100 nM"
compound=O=C(C1CCS(=O)(=O)CC1)N1CCN(c2ncnc3[nH]ccc23)CC12CC2 observed_property=EC50 observed_measurement="100 to 500 nM"
compound=CC(=O)c1cc(C(=O)N2[C@@H]3CC[C@H]2CN(c2ncnc4[nH]ccc24)C3)cs1 observed_property=EC50 observed_measurement="< 100 nM"
compound=COCCOC(=O)N1[C@@H]2CC[C@H]1CN(c1ncnc3[nH]ccc13)C2 observed_property=EC50 observed_measurement="100 to 500 nM"
